target: human DNA MeTase mRNA; assay: Antisense inhibition of DNA MeTase mRNA (screen of phosphorothioate oligonucleotides); type: cell-based
pIC50: −log10 of the molar value.
Listed here: items and their measured pIC50.
metric: pIC50

INSERT INTO results (substance, number) VALUES
  ('5′-AAGCAT GAG CAC CGT TCUCC-3′ [MG88]', 7.40),
  ('5′-UUCATG TCA GCC AAG GCC AC-3′ [MG98]', 7.35);

Each recorded value in this set is attributed to patent US6953783B1.
